test: blockers of ER-stress CHOP reporter expression – cell-based, unfolded protein response, luciferase reporter, primary screen (AID 2732); settings: CHO-K1 CHOP-promoter luciferase, tunicamycin-induced, 15-18 h; at 10 µM; active compounds read high;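 also: 0% = tunicamycin plus vehicle and 100% = wells without tunicamycin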
The whole screen tested about 220,000 compounds, of which about 8,200 (3.7%) were called active. This excerpt belongs to a sample that is enriched for actives.
outcome measure: inhibition (%)
Numbers only, in %.

Hi, could you look up inhibition for each item in my list?
1. CC(CO)(CO)NC(=O)c1ccc(=O)[nH]n1
2. CCOC(=O)NNc1cc(C(F)(F)F)ccn1
3. COc1ccc(C)cc1NC(=O)C(OC(=O)c1cccc(S(=O)(=O)N(C)c2ccccc2)c1)c1ccccc1 (stereo not drawn)
4. CC(NC(=O)C(=O)Nc1nccs1)c1ccccc1 (stereo not drawn)

[0.5, -10.6, -0.27, 24.1]

Hi, could you look up inhibition for each item in my list?
1. Cc1cccc(OCC(=O)NC(=S)Nc2ccccc2N2CCOCC2)c1
2. CCC1(C)Cc2c(sc3nc(SC)[nH]c(=O)c23)CO1 (stereo not drawn)
3. Cc1noc(C)c1S(=O)(=O)Nc1cc(C(F)(F)F)ccc1N1CCOCC1
4. Cc1ccc(C2=Nc3c(ccc4ccccc34)C(c3ccncc3)=NN2)cc1
5. O=[N+]([O-])c1cc([N+](=O)[O-])c2cccnc2c1O

[47.7, 10, 13.3, 64.5, 16.7]

Hi, could you look up inhibition for each item in my list?
1. O=C(O)C1=C[C@H](c2cccs2)C[C@H](OCCCCO)O1
2. CCOC(=O)c1cnc(COc2ccccc2Cl)[nH]c1=O
3. CCOC(=O)c1c(N)sc2c1CCCC2=O
4. Cc1nc2sc(C(=O)c3ccccc3)c(N)c2c2c1CCCC2
5. Cc1ccc(-c2nc(SCC(=O)Nc3ccccc3OC(F)F)c3c(C)c(C(=O)O)sc3n2)cc1
6. COc1ccc(-n2c(=S)[nH]c3sc4c(c3c2=O)CCc2ccccc2-4)cc1
7. COc1ccc(CCNC(=O)c2ccco2)cc1
8. CCOC(=O)c1cc2cc(-c3c(C(=O)OCC)oc4cc(O)cc(O)c4c3=O)ccc2o1

[-3.52, -0.7, 4.68, 0.62, 101, -20.5, 14.1, 105]
